Ref: paper PMC12319226

# test_system: T1, fHbp m002421 (Neisseria meningitidis, designed fHbp …, point mutant)
# T1 chain: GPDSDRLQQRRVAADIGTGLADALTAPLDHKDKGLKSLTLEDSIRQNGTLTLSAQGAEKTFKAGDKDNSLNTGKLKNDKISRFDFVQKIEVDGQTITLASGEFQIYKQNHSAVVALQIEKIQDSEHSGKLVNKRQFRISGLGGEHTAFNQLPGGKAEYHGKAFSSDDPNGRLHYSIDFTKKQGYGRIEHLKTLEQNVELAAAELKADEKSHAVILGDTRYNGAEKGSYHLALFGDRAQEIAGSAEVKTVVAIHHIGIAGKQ
# assay_remarks: BLI
# experimental_context: both partners purified
pKd: −log10 of the molar value.
measured_metric: pKd

- mAb 1E6 (human) (antibody, V domains shown, source: Expi293, purified (MabSelect SuRe, SEC); copies: 2 + 2) VH: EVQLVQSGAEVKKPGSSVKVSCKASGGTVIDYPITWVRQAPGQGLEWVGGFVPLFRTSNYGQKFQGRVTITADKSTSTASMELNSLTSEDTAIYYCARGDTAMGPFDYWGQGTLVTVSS VL: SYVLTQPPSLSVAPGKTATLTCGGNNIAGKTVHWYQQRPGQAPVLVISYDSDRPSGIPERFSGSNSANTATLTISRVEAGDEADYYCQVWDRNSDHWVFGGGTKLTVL: 9.88
- chimeric antibody h12C1 (antibody, V domains shown, also called humanized 12C1; source: Expi293, purified (MabSelect SuRe, SEC); copies: 2 + 2) VH: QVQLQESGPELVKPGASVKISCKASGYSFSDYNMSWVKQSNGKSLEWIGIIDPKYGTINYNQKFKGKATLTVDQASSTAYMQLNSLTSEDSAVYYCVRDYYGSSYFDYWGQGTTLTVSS VL: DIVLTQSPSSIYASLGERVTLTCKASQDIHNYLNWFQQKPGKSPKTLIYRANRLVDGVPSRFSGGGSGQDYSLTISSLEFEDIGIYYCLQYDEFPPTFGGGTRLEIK: 7.47
- chimeric antibody hJAR5 (antibody, V domains shown, also called hJAR5-2; humanized JAR5; source: Expi293, purified (MabSelect SuRe, SEC); copies: 2 + 2) VH: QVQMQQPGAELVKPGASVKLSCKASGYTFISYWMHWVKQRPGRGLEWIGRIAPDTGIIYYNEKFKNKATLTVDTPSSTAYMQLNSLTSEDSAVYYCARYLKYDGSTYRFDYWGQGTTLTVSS VL: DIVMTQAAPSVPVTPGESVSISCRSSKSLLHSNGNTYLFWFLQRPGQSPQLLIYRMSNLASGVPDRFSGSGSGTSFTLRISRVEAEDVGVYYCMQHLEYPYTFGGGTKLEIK: 9.72
- mAb 4B3 (human) (antibody, V domains shown, also called 4B3-2; source: Expi293, purified (MabSelect SuRe, SEC); copies: 2 + 2) VH: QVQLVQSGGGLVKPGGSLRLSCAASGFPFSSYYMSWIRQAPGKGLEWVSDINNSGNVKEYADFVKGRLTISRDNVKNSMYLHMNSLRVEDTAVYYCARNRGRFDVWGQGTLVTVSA VL: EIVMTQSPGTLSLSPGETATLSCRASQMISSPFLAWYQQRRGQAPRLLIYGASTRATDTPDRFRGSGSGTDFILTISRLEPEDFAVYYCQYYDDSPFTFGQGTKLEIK: 8.90
